Listed next: entries and their corresponding pKd.
- assayed system: T1, LNX2_2, Q8N448
- T1 sequence (Q8N448 334-432, limits assumed, looked up): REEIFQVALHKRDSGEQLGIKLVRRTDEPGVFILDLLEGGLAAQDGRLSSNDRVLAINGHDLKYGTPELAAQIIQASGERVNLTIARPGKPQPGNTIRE
- method: holdup assay
- Parameters: key: below the threshold = too weak to quantify, mostly under pKd 3.1 to 4
- test context: plain residues with an end cap or a label only (N-terminal biotin on a linker: ado-ado)
Answer as a number with no unit attached.

- DFLSTFHIRI [CIB2, O75838]: 3.74
- VKRNSKETVV [MARCHF3, Q86UD3]: 5.2
- PSHPRLQTHV [KIRREL2, Q6UWL6]: 3.5

// sample MQHQRTHTRV [ZSCAN30, Q86W11] , its pKd was 4.47

// sample ILRKSTTTTV [PRR16, Q569H4] , its pKd was 4.84

// sample GTGYDRKDYV [CLDN3, O15551] , its pKd was 4.04

// sample DTKNYKQTSV [CRIPT, Q9P021] , its pKd was 3.66

// sample RDPPAEWTRV [PTPN18, Q99952] , its pKd was 5.15

// sample AEASVACSLC [PTGIR, P43119] , its pKd was 3.78

// sample SFISKKEWYV [NECTIN1, Q15223] , its pKd was 5.05
